ASSAY TARGET: T1, human MSLN-R3 protein (human, UniProt Q13421 487-598)
T1 construct: also called hMSLN-R3
T1 sequence (Q13421 495-606, form in doubt): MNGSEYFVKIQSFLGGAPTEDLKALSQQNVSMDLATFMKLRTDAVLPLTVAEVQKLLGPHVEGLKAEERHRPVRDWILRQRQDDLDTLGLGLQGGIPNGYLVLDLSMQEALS
PROCEDURE TEXT: ELISA on coated antigen, antibody 100 nM
ENDPOINT: OD450 (OD450)

INSERT INTO assay_data (binder, endpoint, quantitative_readout) VALUES
  ('F7.44.20-H9 (scFv, not shown: small tags and cut ends, also called S009-F7.44.20 humanized antibody VH2 + VL1) scFv: EVQLVQSGAEVKKPGASVKVSCKASGYTFTDYNMDWVRQAPGQGLEWMGDINPSTGGTIYNQKFNGRVTMTEDKSASTVYMELSSLRSEDTAVYYCARRRIGTGYFDVWGQGTTVTVSSGGGGSGGGGSGGGGSEIVLTQSPDFQSVTPKEKVTITCSASSSVISSYLSWYQQKPDQSPKLLIYRTSNLASGVPSRFSGSGSGTDFTLTINSLEAEDAATYYCHQWSSFPYTFGGGTKVEIK', 'OD450', 2.52),
  ('F7.44.20-H15 (scFv, not shown: small tags and cut ends, also called S009-F7.44.20 humanized antibody VH2a + VL3) scFv: EVQLVQSGAEVKKPGASVKVSCKASGYTFTDYNMDWVRQAPGQGLEWMGDINPSTGGTIYNQKFSGRVTMTEDKSASTVYMELSSLRSEDTAVYYCARRRIGTGYFDVWGQGTTVTVSSGGGGSGGGGSGGGGSEIVLTQSPATLSLSPGERATLSCSASSSVISSYLSWYQQKPGQSPRLLIYRTSNLASGIPARFSGSGSGTDYTLTISSLEPEDFAVYYCHQWSSFPYTFGGGTKVEIK', 'OD450', 1.86),
  ('F7.44.20-H13 (scFv, not shown: small tags and cut ends, also called S009-F7.44.20 humanized antibody VH2a + VL1) scFv: EVQLVQSGAEVKKPGASVKVSCKASGYTFTDYNMDWVRQAPGQGLEWMGDINPSTGGTIYNQKFSGRVTMTEDKSASTVYMELSSLRSEDTAVYYCARRRIGTGYFDVWGQGTTVTVSSGGGGSGGGGSGGGGSEIVLTQSPDFQSVTPKEKVTITCSASSSVISSYLSWYQQKPDQSPKLLIYRTSNLASGVPSRFSGSGSGTDFTLTINSLEAEDAATYYCHQWSSFPYTFGGGTKVEIK', 'OD450', 1.94),
  ('F7.44.20-H4 (scFv, not shown: small tags and cut ends, also called S009-F7.44.20 humanized antibody VH1 + VL4) scFv: EVQLVQSGAEVKKPGASVKVSCKASGYTFTDYNMDWVRQAPGQGLEWMGDINPSTGGTIYNQKFNGRVTMTEDKSTSTVYMELSSLRSEDTAVYYCARRRIGTGYFDVWGQGTTVTVSSGGGGSGGGGSGGGGSEIVLTQSPATLSLSPGERATLSCSASSSVISSYLSWYQQKPGSSPRLLIYRTSNLASGIPARFSGSGSGTDYTLTISSLEPEDFAVYYCHQWSSFPYTFGGGTKVEIK', 'OD450', 2.32),
  ('F7.44.20-H8 (scFv, not shown: small tags and cut ends, also called S009-F7.44.20 humanized antibody VH1a + VL4) scFv: EVQLVQSGAEVKKPGASVKVSCKASGYTFTDYNMDWVRQAPGQGLEWMGDINPSTGGTIYNQKFQGRVTMTEDKSTSTVYMELSSLRSEDTAVYYCARRRIGTGYFDVWGQGTTVTVSSGGGGSGGGGSGGGGSEIVLTQSPATLSLSPGERATLSCSASSSVISSYLSWYQQKPGSSPRLLIYRTSNLASGIPARFSGSGSGTDYTLTISSLEPEDFAVYYCHQWSSFPYTFGGGTKVEIK', 'OD450', 2.15);
